Reference for the values: patent US20110076318A1

# method summary: Plasma concentrations after topical and oral dosing of tazarotene
# Format: in vivo, patients
# experimental setup: human, plasma, po, 1.1 mg/Day, plasma; Oral 1.1 mg/Day; read-out: TAZAROTENIC ACID Cmax
result type: Cmax (ng/mL)
Just the number in ng/mL, nothing appended.

The molecule identified as CC1(C)CCSc2ccc(C#Cc3ccc(C(=O)O)cn3)cc21 registered its Cmax at 28.9

----------
# method summary: Intraocular pharmacokinetics after single intravitreal injection of Tazarotene
# Assay type: in vivo, female New Zealand White rabbits
# experimental setup: female, New Zealand White, rabbit, retina, topical or ocular, 1250 ng; read-out: mean t1/2 of elimination from the retina (converted)
result type: half-life
Lab note: write values as number then unit, every time.

The molecule identified as CCOC(=O)c1ccc(C#Cc2ccc3c(c2)C(C)(C)CCS3)nc1 registered its half-life at 7.63 h

----------
# method summary: Solubility of tazarotene
# Assay type: physicochemical
# experimental setup: water; read-out: solubility in water
result type: solubility
Lab note: write values as number then unit, every time.

The compound identified as CCOC(=O)c1ccc(C#Cc2ccc3c(c2)C(C)(C)CCS3)nc1 [Tazarotene] registered its solubility at 1 µg/mL

----------
# method summary: Intraocular pharmacokinetics after single intravitreal injection of Tazarotene
# Type: in vivo, female New Zealand White rabbits
# experimental setup: female, New Zealand White, rabbit, retina, other: intravitreal injection, 1250 ng; 2 hr post dose; read-out: Tazarotene concentration in the retina
result type: concentration at 2 hr (ng/g)
Just the number in ng/g, nothing appended.

The compound identified as CCOC(=O)c1ccc(C#Cc2ccc3c(c2)C(C)(C)CCS3)nc1 registered its concentration at 2 hr at 859

----------
# method summary: Ocular disposition of tazarotene and tazarotenic acid after intravitreal and subconjunctival dosing
# Type: in vivo, albino rabbits
# experimental setup: albino, rabbit, vitreous, other: intraocular injection, mid-vitreous, 1.25 ug; midvitreous dosing of 1.25 μg tazarotenic acid; read-out: vitreous elimination half-life (converted)
result type: half-life (h)
Just the number in h, nothing appended.

The compound identified as CC1(C)CCSc2ccc(C#Cc3ccc(C(=O)O)cn3)cc21 [Tazarotenic Acid] registered its half-life at 4.24

----------
# method summary: Plasma concentrations after topical and oral dosing of tazarotene
# Assay type: in vivo, patients
# experimental setup: human, plasma, topical or ocular, range over topical studies; read-out: Tazarotenic acid plasma concentrations (Cmax) from topical administration
result type: Cmax

The molecule identified as CC1(C)CCSc2ccc(C#Cc3ccc(C(=O)O)cn3)cc21 registered its Cmax at 0.25 to 12 ng/mL

----------
# method summary: Intraocular pharmacokinetics after single intravitreal injection of Tazarotene
# Assay type: in vivo, female New Zealand White rabbits
# experimental setup: female, New Zealand White, rabbit, vitreous humor, other: intravitreal injection; 24 hr post dose; 1250 ng intravitreal; read-out: Tazarotene concentration in the vitreous humor
result type: concentration at 24 hr (ng/g)
Just the number in ng/g, nothing appended.

The compound identified as CCOC(=O)c1ccc(C#Cc2ccc3c(c2)C(C)(C)CCS3)nc1 registered its concentration at 24 hr at 115

----------
# method summary: Plasma concentrations after topical and oral dosing of tazarotene
# Format: in vivo, patients
# experimental setup: human, plasma, po, 3 mg/Day, plasma; Oral 3.0 mg/Day; read-out: TAZAROTENE Cmax
result type: Cmax

The compound identified as CCOC(=O)c1ccc(C#Cc2ccc3c(c2)C(C)(C)CCS3)nc1 registered its Cmax at < 0.1 ng/mL

----------
# method summary: Tissue-to-plasma distribution after daily topical 14C-tazarotene
# Assay type: in vivo
# experimental setup: rat, eye, topical; read-out: eye plasma distribution ratio
result type: Kp at 21 days
Number only, please.

The molecule identified as CC1(C)CCSc2ccc(C#Cc3ccc(C(=O)O)cn3)cc21 registered its Kp at 21 days at 0.02

----------
# method summary: Plasma concentrations after topical and oral dosing of tazarotene
# Type: in vivo, patients
# experimental setup: human, plasma, po, 1.1 mg/Day, plasma; Oral 1.1 mg/Day; in 95%; read-out: TAZAROTENE Cmax
result type: Cmax

The compound identified as CCOC(=O)c1ccc(C#Cc2ccc3c(c2)C(C)(C)CCS3)nc1 registered its Cmax at < 0.1 ng/mL

----------
# method summary: Intraocular pharmacokinetics after single intravitreal injection of Tazarotene
# Format: in vivo, female New Zealand White rabbits
# experimental setup: female, New Zealand White, rabbit, retina, other: intravitreal injection, 1250 ng; 24 hr post dose; read-out: Tazarotene concentration in the retina
# Method: The intraocular pharmacokinetics of Tazarotene was assessed in female New Zealand White rabbits following a single intravitreal injection. The rabbits were dosed with bilateral intravitreal injections of Tazarotene (1250 ng in 50 μL). At 0.5, 1, 2, 4, 8, 12, and 24 hr post dose, animals were sacrificed and the aqueous humor, vitreous humor, and retina samples were analyzed. […]
result type: concentration at 24 hr (ng/g)
Just the number in ng/g, nothing appended.

The compound identified as CCOC(=O)c1ccc(C#Cc2ccc3c(c2)C(C)(C)CCS3)nc1 registered its concentration at 24 hr at 93.1

----------
# method summary: Plasma concentrations after topical and oral dosing of tazarotene
# Format: in vivo, patients
# experimental setup: human, plasma, topical or ocular, 0.1 % gel, plasma; Topical Gel 0.1% 20% BSA; read-out: TAZAROTENIC ACID Cmax
result type: Cmax (ng/mL)
Just the number in ng/mL, nothing appended.

The molecule identified as CC1(C)CCSc2ccc(C#Cc3ccc(C(=O)O)cn3)cc21 registered its Cmax at 12

----------
# method summary: Solubility of tazarotene
# Type: physicochemical
# experimental setup: 0.9% saline, saline or isotonic; read-out: solubility in 0.9% saline
result type: solubility

The molecule identified as CCOC(=O)c1ccc(C#Cc2ccc3c(c2)C(C)(C)CCS3)nc1 registered its solubility at < 1 µg/mL

----------
# method summary: Intraocular pharmacokinetics after single intravitreal injection of Tazarotene
# Type: in vivo, female New Zealand White rabbits
# experimental setup: female, New Zealand White, rabbit, vitreous humor, other: intravitreal injection; 2 hr post dose; 1250 ng intravitreal; read-out: Tazarotene concentration in the vitreous humor
result type: concentration at 2 hr (ng/g)
Just the number in ng/g, nothing appended.

The compound identified as CCOC(=O)c1ccc(C#Cc2ccc3c(c2)C(C)(C)CCS3)nc1 registered its concentration at 2 hr at 578

----------
# method summary: Plasma concentrations after topical and oral dosing of tazarotene
# Assay type: in vivo, patients
# experimental setup: human, plasma, topical or ocular, 0.1 % gel, plasma; Topical Gel 0.1% Phase 3; in 90%; read-out: TAZAROTENIC ACID Cmax
result type: Cmax

The compound identified as CC1(C)CCSc2ccc(C#Cc3ccc(C(=O)O)cn3)cc21 registered its Cmax at < 1 ng/mL

----------
# method summary: Plasma concentrations after topical and oral dosing of tazarotene
# Format: in vivo, patients
# experimental setup: human, plasma, po, 6 mg/Day, plasma; Oral 6.0 mg/Day; read-out: TAZAROTENIC ACID Cmax
result type: Cmax (ng/mL)
Just the number in ng/mL, nothing appended.

The compound identified as CC1(C)CCSc2ccc(C#Cc3ccc(C(=O)O)cn3)cc21 [Tazarotenic Acid] registered its Cmax at 227
